- subject_of_test: Cyclin-dependent kinase 4/G1/S-specific cyclin-D1 [L188C] (Homo sapiens)
- protocol_summary: CDKs Assay
- Method: The enzyme was assayed with substrate GST- retinoblastoma in the presence of 25 uM ATP/[gamma-32P] ATP. IC50 is the inhibitor concentration, which inhibits 50% of enzyme activity that catalyzes the transfer of the terminal phosphate from [gamma-32P] labeled ATP to GST- retinoblastoma. Use of 32P-labeled ATP allows this transfer to be monitored by scintillation counting.
result_type: pIC50
Interpret pIC50 as the negative base-10 log of the concentration measured in mol/L.

The following molecules have reported results that may help.
- CCn1c(=O)ccc2cnc(Nc3ccc(N4CCN(C)CC4)cc3)nc21: 7.07
- CCCCn1c(=O)ccc2cnc(Nc3ccccc3)nc21: 5.83

Consider the additional molecule presented here.
[ask] Reported pIC50, molecule O=c1ccc2cnc(Nc3ccccc3)nc2n1Cc1ccccc1 : ____
[reply] 6.03
